assay: Liver microsome stability assay, rat; type: in vitro ADME; conditions: liver microsomes

smiles.data: Nc1ccc(-c2ccc3ncc(-c4noc(C(F)(F)F)n4)cc3c2)cc1
CLint scaled at 1 h, 1 µM (mL/min/kg): 61.2

###

assay: Liver microsome stability assay, human; format: in vitro ADME; settings: liver microsomes
observed.property: CLint scaled at 1 h, 1 µM (mL/min/kg)

molecule: Nc1ccc(-c2ccc3ncc(-c4noc(C(F)(F)F)n4)cc3c2)cc1 [Compound 19]
meas.value: 10.8
